Field: cytotoxicity at 48 h, 25 µg/ml. Provide a value for each of the compounds that follow.
- Measurement notes: MTT cytotoxicity assay, Caco-2
- Type: cell-based, human
- Study conditions: human, Caco-2 cells (human colonic epithelial cells), Caco-2, 25 ug/ml, 48 h
A number alone suffices; assume %.

For the compound COc1cccc2c1C(=O)c1c(O)c3c(c(O)c1C2=O)C[C@@](O)(C(=O)CO)C[C@@H]3O[C@H]1C[C@H](N)[C@H](O)[C@H](C)O1 [Doxorubicin, reference compound] , report cytotoxicity at 48 h, 25 µg/ml.
53.9

For the compound COc1c(O)cc2oc(-c3ccccc3)c(OC)c(=O)c2c1O [5,7-Dihydroxy-3,6-dimethoxyflavone] , report cytotoxicity at 48 h, 25 µg/ml.
48.9
